- experimental_system: T1, PUF4 RNA-binding domain (Saccharomyces cerevisiae, UniProt P25339 537-888)
- T1 sequence: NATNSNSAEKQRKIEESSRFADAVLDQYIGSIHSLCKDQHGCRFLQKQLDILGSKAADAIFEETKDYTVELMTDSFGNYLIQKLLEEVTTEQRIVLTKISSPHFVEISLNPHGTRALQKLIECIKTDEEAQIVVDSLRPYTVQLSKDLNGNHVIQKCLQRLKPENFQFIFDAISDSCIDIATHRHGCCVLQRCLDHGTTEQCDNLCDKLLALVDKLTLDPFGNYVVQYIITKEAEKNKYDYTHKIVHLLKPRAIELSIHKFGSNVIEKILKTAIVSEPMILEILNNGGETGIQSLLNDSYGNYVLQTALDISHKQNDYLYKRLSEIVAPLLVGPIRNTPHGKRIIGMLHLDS
- test_name: Mg; RNA-MaP; 20 mM Na-HEPES pH 7.4, 30 mM KOAc, 0.75 mM MgCl2, 0.1% Tween-20, 5% glycerol, 0.1 mg/mL BSA, 2 mM DTT; 25 C; 0.0125-409.6 nM protein
- details: tags: N-His6-TEV cleaved; C-SNAP kept, Cy3B-labelled; label: tethered on chip by stalled RNA polymerase
pKd: −log10 of the molar value.
// values below are reported pKd
quantity_measured: pKd

binder	relation_operator	reported_value
UCUCUUUGUAUCCCGGUCUCUU (ssRNA) [Ic_S1_P5E.1_K5.1_C5.1_H5.1_A5.1_[T6C]_[A7C]_F5.1_[T8C]_[T9G]_[A10G]_T5.1]	<	5.64
Ic_S2_P5E.1_K5.1_C5.1_H5.1_A5.1_[T6C]_[A7C]_F5.1_[T9A]_[A10T]_T5.1 (ssRNA) RNA: UUUGAUUAAUAUGAUAUCGUUCUUUCUUGUAUCCUAUUUCUUUCUCGAUAUCAUAUUAAUCUUU	=	8.94
Id_iii_S2_P4E.8_K4.4_C4.3_[C-2G]_H4.1_A4.2_F4.1_T4.2 (ssRNA) RNA: UUUGAUUAAUAUGAUAUCGUUCUUUCUUGUUGUAUUUUAGUUUCUUUCUCGAUAUCAUAUUAAUCUUU	=	8.84
UCUCUUAGUGUAUAUAAAUCUCUU (ssRNA) [Id_ii_S1_P3E.2_K3.1_C3.2_[C-2A]_[T-1G]_H3.1_A3.1_F3.1_T3.2_[T9A]]	=	7.85
UCUCUUGCACACUAUUAAUUCUCUU (ssRNA) [Id_ii_S1_P4E.4_K4.3_C4.2_[C-2G]_[T-1C]_H4.3_A4.1_F4.1_T4.2_[G10A]]	=	7.03
UCUCUUGCACACUUAUUACUUCUCUU (ssRNA) [Id_ii_S1_P5E.4_K5.3_C5.2_[C-2G]_[T-1C]_H5.3_A5.1_F5.1_T5.2_[T11C]_[A12T]]	=	5.81
ACAAACAGUAUAUCAACAAAC (ssRNA) [Ib_S3_P4E.1_K4.1_C4.1_H4.1_[T1A]_A4.1_F4.1_[T8C]_T4.1]	<	5.64
Ic_S2_P4E.1_K4.1_C4.1_H4.1_A4.1_[T5C]_[A6T]_[T7A]_F4.1_[T8C]_T4.1 (ssRNA) RNA: UUUGAUUAAUAUGAUAUCGUUCUUUCUUGUACUACAUUCUUUCUCGAUAUCAUAUUAAUCUUU	=	6.45
Id_ii_S2_P5E.3_K5.2_C5.2_[C-2G]_[T-1C]_H5.2_A5.1_F5.1_T5.2_[T11C]_[A12T] (ssRNA) RNA: UUUGAUUAAUAUGAUAUCGUUCUUUCUGCUAUAUUAUUACUUUCUUUCUCGAUAUCAUAUUAAUCUUU	=	6.79
UCUCUUUUUAUAUAUUAGUUCUCUU (ssRNA) [Id_ii_S1_P4E.3_K4.2_C4.2_[C-2T]_H4.2_A4.1_F4.1_T4.2]	=	8.07
UCUCUUUGUACACGAUCUCUU (ssRNA) [Ic_S1_P4E.1_K4.1_C4.1_H4.1_A4.1_[T5C]_[T7C]_F4.1_[T8G]_T4.1]	=	7.22
ACAAACAAUAUAUAUAAGACAAAC (ssRNA) [Id_ii_S3_P3E.3_K3.2_C3.2_[C-2A]_[T-1A]_H3.2_A3.1_F3.1_T3.2_[T9A]_[A10G]]	=	5.96
UCUCUUUGUAAUAUUUUCUCUU (ssRNA) [Ib_S1_P5E.1_K5.1_C5.1_H5.1_A5.1_[T5A]_F5.1_[A10T]_T5.1]	=	7.82
Ic_S2_P5E.1_K5.1_C5.1_H5.1_A5.1_[T5G]_[T6C]_[A7T]_F5.1_[T8A]_[A10T]_T5.1 (ssRNA) RNA: UUUGAUUAAUAUGAUAUCGUUCUUUCUUGUAGCUAUUUUCUUUCUCGAUAUCAUAUUAAUCUUU	=	7.37
UCUCUUUAUGUAUUAUCUCUU (ssRNA) [Ib_S1_P4E.1_K4.1_C4.1_H4.1_[G2A]_[A4G]_A4.1_F4.1_T4.1]	=	7.44
Ic_S4_P4E.1_K4.1_C4.1_H4.1_A4.1_[T5C]_[A6G]_[T7G]_F4.1_[A9C]_T4.1 (ssRNA) RNA: UUUGACAACUGAUCGUUCUUUCUUGUACGGUCUUCUUUCUCGAUCAGUUGUCUUU	=	6.29
UCUCUUGCUAUAUAUUACCUCUCUU (ssRNA) [Id_ii_S1_P4E.3_K4.2_C4.2_[C-2G]_[T-1C]_H4.2_A4.1_F4.1_T4.2_[G10C]_[T11C]]	=	7.21
Ic_S2_P5E.1_K5.1_C5.1_H5.1_A5.1_[T5A]_[T6C]_[A7C]_F5.1_[T8A]_[T9C]_[A10C]_T5.1 (ssRNA) RNA: UUUGAUUAAUAUGAUAUCGUUCUUUCUUGUAACCACCUUCUUUCUCGAUAUCAUAUUAAUCUUU	=	5.97
Ic_S4_P5E.1_K5.1_C5.1_H5.1_A5.1_[T5A]_F5.1_[A10G]_T5.1 (ssRNA) RNA: UUUGACAACUGAUCGUUCUUUCUUGUAAUAUUGUUCUUUCUCGAUCAGUUGUCUUU	=	7.61
Ia_S2_P3E.1_K3.1_C3.1_H3.1_[T1C]_A3.1_F3.1_T3.1 (ssRNA) RNA: UUUGAUUAAUAUGAUAUCGUUCUUUCUCGUAUAUAUUCUUUCUCGAUAUCAUAUUAAUCUUU	=	6.87
UCUCUUAUUAUAUAUAGUUCUCUU (ssRNA) [Id_ii_S1_P3E.3_K3.2_C3.2_[C-2A]_H3.2_A3.1_F3.1_T3.2_[T9G]_[A10T]]	=	6.26
Ib_S2_P3E.1_K3.1_C3.1_H3.1_[T1G]_[G2T]_A3.1_F3.1_T3.1 (ssRNA) RNA: UUUGAUUAAUAUGAUAUCGUUCUUUCUGUUAUAUAUUCUUUCUCGAUAUCAUAUUAAUCUUU	=	7.81
Ic_S4_P5E.1_K5.1_C5.1_H5.1_A5.1_[A7T]_F5.1_[T8A]_[T9A]_T5.1 (ssRNA) RNA: UUUGACAACUGAUCGUUCUUUCUUGUAUUUAAAUUCUUUCUCGAUCAGUUGUCUUU	=	7.41
Ic_S4_P3E.1_K3.1_C3.1_H3.1_A3.1_[T5C]_[A6C]_F3.1_[T7A]_[A8C]_T3.1 (ssRNA) RNA: UUUGACAACUGAUCGUUCUUUCUUGUACCACUUCUUUCUCGAUCAGUUGUCUUU	=	7.10

This collection of values is drawn from paper PMC9352680.
